EXPERIMENT_SUMMARY: Snapshot IV PK in CD1 mice
Format: in vivo
EXPERIMENTAL_CONTEXT: CD1, plasma, mouse, 3.0 mg/kg, read-out: Vss
PARAMETER_MEASURED: Vd (L/kg)
Numbers only, in L/kg.

Illustrative cases are given below, each with its answer.
[
  {
    "MOLECULE": "O=c1oc2ccccc2cc1-c1cn2cc(Cc3ccc(F)cc3)sc2n1 [UNC10302680A, iMDK]",
    "Vd / L/kg": 2.61
  },
  {
    "MOLECULE": "c1cn2cc(-c3ccc4cn[nH]c4c3)nc(Nc3ccc(N4CCOCC4)cc3)c2n1 [UNC10302678A, Entospletinib (GS-9973)]",
    "Vd / L/kg": 2.34
  },
  {
    "MOLECULE": "CNc1nc(C)nc(N[C@H]2CCC[C@@H](C(=O)NCc3ccc(C#N)cc3C(F)(F)F)C2)n1 [UNC10302679A, GSK2256294A]",
    "Vd / L/kg": 0.62
  }
]

Batch: Vd for all items listed.
1. CC(=O)N1CCC(NC(=O)NC23CC4CC(CC(C4)C2)C3)CC1 [UNC10302683A, AR9281]
2. CCC(=O)N1CCC(NC(=O)Nc2ccc(OC(F)(F)F)cc2)CC1 [UNC10302681A, TPPU]
3. Cl.NC(=O)c1cnc(N[C@@H]2CCCC[C@@H]2N)nc1Nc1cccc(-n2nccn2)c1 [UNC10302682A, P505-15 (PRT06207 HCl)]

Response:
1: 0.47; 2: 1.55; 3: 6.26
